Test system: seizures (6 Hz limbic seizure model)
assay-context: 4 mg/kg, i.p.; 30 min
Square brackets hold non-standard residues; d marks the D form. Ends that are not written are not given here. Ahx = NCCCCCC(=O)O
endpoint-name: % Protection at 30 min (%)
Give your result in % as a bare value.

See these solved cases before continuing.
| substance | target-under-test | % Protection at 30 min [%] |
| --- | --- | --- |
| Lys-Lys-Lys(palm)-Lys-Ahx-DPhe-Cys-Phe-DTrp-Lys-Thr-Cys-Thr-NH2 | seizures (6 Hz limbic seizure model) | 100 |
| WAGGDFSGE [DSIP, reference compound] | seizures (6 Hz limbic seizure model) | 0 |
| DPhe-Cys-Phe-DTrp-Lys-Thr-Cys-Thr-NH2 [DPhe-Cys-Phe-DTrp-Lys-Thr-Cys-Thr-N2, reference compound] | seizures (6 Hz limbic seizure model) | 50 |

Now look at this entry.
Exam item: Report % Protection at 30 min for [Ahx]GGWAGGDFSGE please.
Marked response: 50
